These measurements were taken from patent US20240024302A1.

# Method notes: Mouse PK, single oral gavage
# Test conditions: mouse, in vivo, po, 0.3 mg/kg, Mouse AUC, oral gavage, single dose 0.3 mg/kg, 20% PEG400 in oleic acid-rich triglyceride
Documented AUC across a set of molecules

query: // Input: `CC[C@H](C)C(=O)N1CCC(NC(=O)Nc2ccc(OC(F)(F)F)c(OC(F)(F)F)c2)CC1` . Output its AUC only.
result: ≥ 99.9 nM·h

query: Hello, please tell me recorded AUC for this one: `CC[C@H](C)C(=O)N1CCC(NC(=O)Nc2ccc(OC(F)(F)F)c(Cl)c2)CC1`
result: ≥ 99.9 nM·h

query: Tell me its AUC given `CCOC(=O)N1CCC(NC(=O)Nc2ccc(OC(F)(F)F)c(F)c2)CC1` as the entry.
result: ≥ 99.9 nM·h

Next molecule, please.
query: Specify AUC for `O=C(Nc1ccc(OC(F)(F)F)cc1)NC1CCN(C(=O)C2CCOCC2)CC1` and stop.
result: 5060 nM·h

====

# Method notes: Rat PK, single oral gavage
# Assay type: in vivo
# Test conditions: rat, in vivo, single dose 0.1 mg/kg, read-out: Rat T1/2 (converted)
Category scheme (half-life): bin A = under 3 h, bin B = from 3 h up to 4 h, bin C = 4 h and over

query: Given `CC(C)C(=O)N1CCC(NC(=O)Nc2ccc(C(F)(F)F)c(F)c2)CC1` , name the class its half-life places it in.
result: bin A

query: For `O=C(Nc1ccc(OC(F)(F)F)c(F)c1)NC1CCN(C(=O)C2CCOCC2)CC1` , which half-life bin applies?
result: bin C

query: Could you place `CC[C@H](C)C(=O)N1CCC(NC(=O)Nc2ccc(OC(F)(F)F)c(OC(F)(F)F)c2)CC1` in its proper category? Many thanks.
result: bin A

Continuing:
query: Which class holds `Cc1occc1C(=O)N1CCC(NC(=O)Nc2ccc(OC(F)(F)F)cc2)CC1` ?
result: bin C

query: Please indicate the class for `O=C(Nc1ccc(OC(F)(F)F)c(F)c1)NC1CCN(C(=O)C2(C(F)(F)F)CC2)CC1` based on its half-life.
result: bin A

query: For `CC(C)C(=O)N1CCC(CC(=O)Nc2ccc(OC(F)(F)F)c(F)c2)CC1` , which half-life bin applies?
result: bin A

query: Class label required: `O=C(Nc1ccc(OC(F)(F)F)c(F)c1)NC1CCN(C(=O)[C@@H]2CCOC2)CC1`
result: bin B

query: Pick a category. Item: `O=C(Nc1ccc(OC(F)(F)F)c(F)c1)NC1CCN(C(=O)N2CCOCC2)CC1`
result: bin B

query: Entry CCC(=O)N1CCC(NC(=O)Nc2ccc(OC(F)(F)F)cc2)CC1 [drawing 62] belongs to which category?
result: bin C

query: GET /class?item= `O=C(Nc1ccc(OC(F)(F)F)cc1)NC1CCN(C(=O)C2CCOCC2)CC1`
result: bin B
